experiment: Population PK: plasma-modeled parent MT Cmax,ss; assay type: in vivo, human; conditions: both sexes, human, plasma, oral, 8 mg/day, 8 mg/day – Group 1; read-out: Plasma-modeled parent MT Cmax,ss, Range
REPORTED ENDPOINT: Cmax

Q: Please report the recorded Cmax for CN(C)c1ccc2c(c1)Sc1cc(N(C)C)ccc1N2 [hydromethylthionine] .
Ans: 0.281 to 0.346 ng/mL

----------
Assay: Population PK: plasma-modeled parent MT Cmax,ss
Format: in vivo, human
Conditions: both sexes, human, plasma, oral, 8 mg/day, 8 mg/day – Group 1; read-out: Plasma-modeled parent MT Cmax,ss, Mean (SD)
Procedure: Blood samples for assessment of parent MT, N-desmethyl MT, and total MT (sum of parent MT and a labile LMT conjugate), were collected from each patient on the first treatment visit (two samples: pre-dose and approximately 3.5 h after the dose) and at each subsequent on-treatment visit. […] MT levels in plasma were measured using liquid chromatography-tandem mass spectrometry assay. […]
REPORTED ENDPOINT: Cmax

Q: Please report the recorded Cmax for CN(C)c1ccc2c(c1)Sc1cc(N(C)C)ccc1N2 [hydromethylthionine] .
Ans: 0.321 ng/mL

----------
assay: Population PK: plasma-modeled parent MT Cmax,ss; assay type: in vivo, human; settings: both sexes, human, plasma, oral, 8 mg/day, 8 mg/day – Group 2; read-out: Plasma-modeled parent MT Cmax,ss, Mean (SD)
REPORTED ENDPOINT: Cmax (ng/mL)
Kindly provide the numeric value in ng/mL only, without the unit symbol.

Q: Please report the recorded Cmax for CN(C)c1ccc2c(c1)Sc1cc(N(C)C)ccc1N2 [hydromethylthionine] .
Ans: 0.355

----------
assay: Population PK: plasma-modeled parent MT Cmax,ss; type: in vivo, human; details: both sexes, human, plasma, oral, 8 mg/day, 8 mg/day – Group 2; read-out: Plasma-modeled parent MT Cmax,ss, Range
REPORTED ENDPOINT: Cmax

Q: Please report the recorded Cmax for CN(C)c1ccc2c(c1)Sc1cc(N(C)C)ccc1N2 [hydromethylthionine] .
Ans: 0.346 to 0.372 ng/mL

----------
assay: Population PK: plasma-modeled parent MT Cmax,ss; assay type: in vivo, human; details: both sexes, human, plasma, oral, 200 mg/day; read-out: Plasma-modeled parent MT Cmax,ss, Mean (SD)
REPORTED ENDPOINT: Cmax
Please append the unit to your numeric answer.

Q: Please report the recorded Cmax for CN(C)c1ccc2c(c1)Sc1cc(N(C)C)ccc1N2 [hydromethylthionine] .
Ans: 9.04 ng/mL

----------
Assay: Population PK: plasma-modeled parent MT Cmax,ss
Assay type: in vivo, human
Conditions: both sexes, human, plasma, oral, 8 mg/day, 8 mg/day – Group 3; read-out: Plasma-modeled parent MT Cmax,ss, Range
Method: Blood samples for assessment of parent MT, N-desmethyl MT, and total MT (sum of parent MT and a labile LMT conjugate), were collected from each patient on the first treatment visit (two samples: pre-dose and approximately 3.5 h after the dose) and at each subsequent on-treatment visit. […] MT levels in plasma were measured using liquid chromatography-tandem mass spectrometry assay. […]
REPORTED ENDPOINT: Cmax

Q: Please report the recorded Cmax for CN(C)c1ccc2c(c1)Sc1cc(N(C)C)ccc1N2 [hydromethylthionine] .
Ans: 0.373 to 0.409 ng/mL

----------
assay: Population PK: plasma-modeled parent MT Cmax,ss; assay type: in vivo, human; conditions: both sexes, human, plasma, oral, 8 mg/day, 8 mg/day – Group 4; read-out: Plasma-modeled parent MT Cmax,ss, Mean (SD)
REPORTED ENDPOINT: Cmax (ng/mL)
Kindly provide the numeric value in ng/mL only, without the unit symbol.

Q: Please report the recorded Cmax for CN(C)c1ccc2c(c1)Sc1cc(N(C)C)ccc1N2 [hydromethylthionine] .
Ans: 0.47
